Assay: Phase 1 single ascending dose 2-hour IV infusion PK in healthy subjects (Cohorts 1-3)
Format: in vivo, human
Settings: human; 0.3 mg/kg IV, 2-hour infusion; plasma; read-out: Cmax (geometric mean)
Structures can show the parent of a compound that is named as a salt.
readout_type: Cmax (ng/mL)

compound="OC[C@H]1NC[C@H](O)[C@@H](O)[C@H]1O [migalastat HCl]" readout_type=Cmax readout_unit=ng/mL endpoint_result=609

---

Assay: Phase 1 single ascending dose 2-hour IV infusion PK in healthy subjects (Cohorts 1-3)
Assay type: in vivo, human
Settings: human, plasma; 10 mg/kg IV; read-out: tmax (median)
Structures can show the parent of a compound that is named as a salt.
readout_type: Tmax (h)

compound="OC[C@H]1NC[C@H](O)[C@@H](O)[C@H]1O [migalastat HCl]" readout_type=Tmax endpoint_result=1.93

---

Experiment: Phase 1 single ascending dose 2-hour IV infusion PK in healthy subjects (Cohorts 1-3)
Format: in vivo, human
Conditions: human, plasma, iv, 10 mg/kg, 10 mg/kg IV; read-out: Vss (arithmetic mean)
Counter-ions that a name gives are not always drawn.
readout_type: Vd (L)

compound="OC[C@H]1NC[C@H](O)[C@@H](O)[C@H]1O [migalastat HCl]" readout_unit=L endpoint_result=27.2

---

Experiment: General toxicology NOAEL, rat
Type: in vivo
Conditions: rat, in vivo, 1500 mg/kg/day
Structures can show the parent of a compound that is named as a salt.
readout_type: Cmax (ng/mL)

compound="OC[C@H]1NC[C@H](O)[C@@H](O)[C@H]1O [migalastat HCl]" readout_type=Cmax readout_unit=ng/mL endpoint_result=23400

---

Experiment: Phase 1 single ascending dose 2-hour IV infusion PK in healthy subjects (Cohorts 1-3)
Type: in vivo, human
Conditions: human, plasma; 0.3 to 10 mg/kg IV; read-out: geometric mean Cmax, range over doses
Counter-ions that a name gives are not always drawn.
readout_type: Cmax

compound="OC[C@H]1NC[C@H](O)[C@@H](O)[C@H]1O [migalastat HCl]" endpoint_result="609 to 20700 ng/mL"

---

Test: General toxicology NOAEL, monkey
Format: in vivo
Settings: monkey, in vivo; general toxicology
Where a name gives a salt, the structure may show the parent alone.
readout_type: NOAEL (mg/kg/day)

compound="OC[C@H]1NC[C@H](O)[C@@H](O)[C@H]1O [migalastat HCl]" endpoint_result=500

---

Test: Phase 1 single ascending dose 2-hour IV infusion PK in healthy subjects (Cohorts 1-3)
Assay type: in vivo, human
Conditions: human, plasma; 0.3 mg/kg IV; read-out: AUC0-∞ (geometric mean)
Structures can show the parent of a compound that is named as a salt.
readout_type: AUC(0-inf) (ng·h/mL)

molecule="OC[C@H]1NC[C@H](O)[C@@H](O)[C@H]1O [migalastat HCl]" readout_unit=ng·h/mL endpoint_result=2320

---

Assay: General toxicology NOAEL, monkey
Type: in vivo
Conditions: monkey, in vivo, 500 mg/kg/day
Structures can show the parent of a compound that is named as a salt.
readout_type: AUC (ng·h/mL)

compound="OC[C@H]1NC[C@H](O)[C@@H](O)[C@H]1O [migalastat HCl]" readout_type=AUC endpoint_result=30600

---

Experiment: Phase 1 crossover absolute bioavailability, 150 mg oral capsule vs 150 mg IV infusion (Cohort 4)
Type: in vivo, human
Conditions: human, plasma; 150 mg oral; read-out: AUC0-t (geometric mean)
Counter-ions that a name gives are not always drawn.
readout_type: AUC(0-t) (µg·h/mL)

molecule="OC[C@H]1NC[C@H](O)[C@@H](O)[C@H]1O [migalastat HCl]" endpoint_result=9.78
